These records show pKi for Kappa-type opioid receptor (Homo sapiens, UniProt P41145).
// pKi: -log10(molar conc.)

Consider the following illustrative entries.
{"compoundString": "COC(=O)[C@@H]1C[C@H](OC(C)=O)C(=O)[C@H]2[C@@]1(C)CC[C@H]1C(=O)O[C@H](c3ccn(S(C)(=O)=O)c3)C[C@]21C", "pKi": 6.08}
{"compoundString": "COC(=O)[C@@H]1C[C@H](OC(C)=O)C(=O)[C@H]2[C@@]1(C)CC[C@H]1C(=O)O[C@H](c3ccn(S(=O)(=O)c4ccccc4)c3)C[C@]21C", "pKi": 6.39}
{"compoundString": "COC(=O)[C@@H]1C[C@H](OC(C)=O)C(=O)[C@H]2[C@@]1(C)CC[C@H]1C(=O)O[C@H](c3ccn(S(=O)(=O)c4ccc(OC)cc4)c3)C[C@]21C", "pKi": 5.79}

Then this compound:
# input Can you look up the measured pKi of COC(=O)c1coc([C@@H]2C[C@]3(C)[C@H]4C(=O)[C@@H](OC(C)=O)C[C@@H](C(=O)OC)[C@]4(C)CC[C@H]3C(=O)O2)n1 for me?
# output 5.07

* * *

These records show Ki for Mu-type opioid receptor (Homo sapiens).

Consider the following illustrative entries.
{"compoundString": "COC(=O)[C@@H]1C[C@H](OC(C)=O)C(=O)[C@H]2[C@@]1(C)CC[C@H]1C(=O)O[C@H](c3ccn(S(C)(=O)=O)c3)C[C@]21C", "Ki": "> 10 µM"}
{"compoundString": "COC(=O)[C@@H]1C[C@H](OC(C)=O)C(=O)[C@H]2[C@@]1(C)CC[C@H]1C(=O)O[C@H](c3ccn(S(=O)(=O)c4ccccc4)c3)C[C@]21C", "Ki": "> 10 µM"}

# input Can you look up the measured Ki of COC(=O)c1coc([C@@H]2C[C@]3(C)[C@H]4C(=O)[C@@H](OC(C)=O)C[C@@H](C(=O)OC)[C@]4(C)CC[C@H]3C(=O)O2)n1 for me?
# output > 10 µM

# input Can you look up the measured Ki of COC(=O)[C@@H]1C[C@H](OC(C)=O)C(=O)[C@H]2[C@@]1(C)CC[C@H]1C(=O)O[C@H](c3ccn(S(=O)(=O)c4ccc(OC)cc4)c3)C[C@]21C for me?
# output > 10 µM
